Target: T1, human galectin-10-His (human)
T1 construct: The last M of the tag may be Met1 of galectin-10; also called humanGal10-His; hGal10
T1 chain: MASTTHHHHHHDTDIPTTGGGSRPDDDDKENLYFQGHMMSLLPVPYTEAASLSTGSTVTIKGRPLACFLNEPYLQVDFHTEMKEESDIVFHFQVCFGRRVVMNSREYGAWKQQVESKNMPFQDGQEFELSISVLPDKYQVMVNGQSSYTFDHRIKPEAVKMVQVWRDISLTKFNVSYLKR
Assay: SPR Biacore T3000, scFv-human Fc captured
observed_property: koff (s⁻¹)
I only need the number, in s⁻¹, no unit after it.

{"binder": "10A06 scFv-human Fc (Fc fusion, also called 010A06; not shown: CH2-CH3 constant domains of human IgG1 (pUPEX50 scFv-Fc fusion vector)) scFv: QVQLVESGGGLVQPGGSLRLSCAASGFTFGNYDMSWVRQAPGKGPEWVSDINSGGGSTYYADSVKGRFTISRDNAKNSLLLQMNSLKPEDTAVYYCATGYTGYYYWGQGTQVTVSSGGGGSGGGGSGGGGSQTVVTQEPSLSVSPGGTVTLTCGLSSGSVTSSNYPAWYQQTPGQAPRALIYSINSRHSGVPDRFSGSISGNKAALTITGAQAEDEADYYCTLYMGTGSNNVVFGGGTHLTVL", "units_symbol": "s⁻¹", "reported": 0.00025}

For the binder shown here, 10B02 scFv-human Fc (Fc fusion, also called 010B02; not shown: CH2-CH3 constant domains of human IgG1 (pUPEX50 scFv-Fc fusion vector)) scFv: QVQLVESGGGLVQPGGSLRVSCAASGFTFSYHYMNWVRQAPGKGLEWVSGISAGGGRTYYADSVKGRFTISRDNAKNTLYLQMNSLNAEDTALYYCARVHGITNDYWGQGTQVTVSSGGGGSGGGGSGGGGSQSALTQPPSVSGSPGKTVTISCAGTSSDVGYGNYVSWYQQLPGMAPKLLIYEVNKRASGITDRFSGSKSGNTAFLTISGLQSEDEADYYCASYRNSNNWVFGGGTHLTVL , give the reported koff.
0.00081
